# EXPERIMENTAL DETAILS: Solubility of IP2015 in aqueous and non-aqueous vehicles (visual, HPLC content)
# Assay type: physicochemical
# PROTOCOL CONDITIONS: n,n-dimethyl acetamide
QUANTITY NAME: solubility

Qu. Fill in the blank: the reported solubility of COc1cc2ccc(O[C@@H]3C[C@H]4CC[C@@H](C3)N4)cc2oc1=O is ____.
Ans. < 1000 µg/mL

* * *

# EXPERIMENTAL DETAILS: Solubility of IP2015 in aqueous and non-aqueous vehicles (visual, HPLC content)
# Type: physicochemical
# PROTOCOL CONDITIONS: pH 6.8 Potassium Phosphate buffer
QUANTITY NAME: solubility (µg/mL)
Answers are plain numbers, in µg/mL.

Qu. Fill in the blank: the reported solubility of COc1cc2ccc(O[C@@H]3C[C@H]4CC[C@@H](C3)N4)cc2oc1=O [IP2015] is ____.
Ans. 146

The measured values listed here are drawn from patent EP4731189B1.
